Target: Luciferin 4-monooxygenase (Photinus pyralis)
Test: qHTS assay to identify small molecule inhibitors of firefly luciferase (AID 1224835); further: nearly all actives have a fitted effect of over 25% in size
Settings: purified P. pyralis luciferase, luminescence inhibition; series mostly up to 115 µM
Results filed as inconclusive are left out. Activity calls are given as the source filed them. The call rests on the fitted dose curve; in most records, active means well fitted inhibition curve with a large enough effect in the repeat runs; inconclusive means weak or mixed curves; inactive means flat fitted curve, though single readings scatter.
Pick one: 1 for active, -1 for inactive

Input line: Test call, this compound: ClC1=C(Cl)[C@]2(Cl)[C@@H]3[C@@H](Cl)[C@H]4O[C@H]4[C@@H]3C1(Cl)C2(Cl)Cl
Output line: -1

Input line: Recorded call for O=S(=O)(C(Cl)(Cl)Cl)C(Cl)(Cl)Cl ?
Output line: 1

Input line: Record lookup: outcome of this test for O=[N+]([O-])c1c(Cl)c(Cl)cc(Cl)c1Cl ?
Output line: -1

Input line: # fetch the recorded call for Cc1nnc2n1-c1sc(CCc3ccc(CC(C)C)cc3)cc1C(c1ccccc1Cl)=NC2C (stereo unspecified) here
Output line: -1

Input line: I would be grateful if you could indicate the recorded call for OCC(c1ccc(Cl)cc1)c1ccc(Cl)cc1 .
Output line: -1

Input line: Which outcome was assigned to O=C(c1ccccc1)C(Cl)Cl in this test?
Output line: -1
